PROTOCOL_NOTES: qHTS Assay for Lipid Storage Modulators in Drosophila S3 Cells
ASSAY_CONDITIONS: BODIPY lipid droplet fluorescence, 18-24 h, cells fed with added oleic acid; series mostly up to 46.1 µM
Out of some 320,000 compounds screened, about 2,100 (0.66%) were called active. Inconclusive results (about 53%) are left out. Calls follow the shape of the dose curve; as a rule, active = well fitted inhibition curve with a large enough effect in the signal ratio, with a control signal flat (not every such curve was filed as active); inconclusive = small, poorly fitted or top-dose-only effect, or effect the other way, or a change in a side signal; inactive = flat fitted curve, though single readings scatter; the % refers to the signal ratio. The sample as a whole holds a higher share of actives than the screen did.
Classes used: active, inactive

* CC(C)c1ccc(OCCCN2CCCC2)cc1 | inactive
* Cc1ccc(-n2c(SCC(=O)O)nc3sc4c(c3c2=O)CCCC4)cc1 | inactive
* CCCc1ccc2oc(C(=O)N3CCN(c4cnccn4)CC3)c(C)c2c1 | inactive
* Nc1nc(SCc2nnc(SCC(=O)O)n2-c2ccccc2)nc2sc3c(c12)CCCC3 | active
* O=C(Nc1ccc(Cl)c([N+](=O)[O-])c1)c1ccc2c(c1)OCCO2 | inactive
* Cc1ccccc1-n1c(SCC(=O)O)nc2sc3c(c2c1=O)CCCC3 | inactive
* CC(=O)Nc1cccc(/C(C)=N/NC(=O)c2ccc(NS(=O)(=O)c3cccs3)cc2)c1 | inactive
* O=C(Nc1ccc2c(c1)OCCO2)c1ccc(Cl)cc1Cl | inactive
* CN(C)c1ccc(S(=O)(=O)NCC(=O)NCc2ccccc2)cc1[N+](=O)[O-] | inactive
* CCCc1ccc2oc(C(=O)N3CCC(O)CC3)c(C)c2c1 | inactive
* O=C(Nc1ccccc1NC(=O)c1ccco1)c1ccco1 | inactive
* O=C(O)CSc1nc2sc3c(c2c(=O)n1-c1ccccc1)CCC3 | inactive
* COc1ccc(-c2nnc(-c3ccc(Br)o3)o2)cc1OC | inactive
* CCc1ccc(Nc2cnn(C34CC5CC(CC(CC(=O)O)(C5)C3)C4)c(=O)c2Cl)cc1 | inactive
* O=C(CN(C(=O)c1csnn1)c1cccc(Cl)c1)NCCc1ccccc1 | inactive
* COC(=O)CN(n1cnnc1)S(=O)(=O)c1ccccc1Cl | inactive
* Cc1ccc(Nc2cnn(C34CC5CC(CC(CC(=O)O)(C5)C3)C4)c(=O)c2Cl)c(Cl)c1 | inactive
* O=C(Nc1ccc(NC(=O)c2ccc(Cl)cc2Cl)cc1)c1ccc2c(c1)OCO2 | active
* COc1ccc(-c2cc(C(=O)c3c(N)n(C)c(=O)n(C)c3=O)c3ccccc3n2)cc1 | inactive
* COc1ccc(NC(=O)C(=O)Nc2cccc3cccnc23)cc1OC | inactive
* CCC(C)c1ccc(OCCN2CCCC2)cc1 (configuration not stated) | active
* O=C(Nc1ccc2c(c1)OCCO2)c1ccc(Cl)c([N+](=O)[O-])c1 | active

###

PROTOCOL_NOTES: qHTS Assay for Lipid Storage Modulators in Drosophila S3 Cells
ASSAY_CONDITIONS: BODIPY lipid droplet fluorescence, 18-24 h, cells fed with added oleic acid; series mostly up to 46.1 µM
In all, about 320,000 compounds went through this assay and about 2,100 (0.66%) were called active. About 53% were inconclusive and are not listed. Calls come from the whole dose curve; as a rule, active = well fitted inhibition curve with a large enough effect in the signal ratio, with a control signal flat (not every such curve was filed as active); inconclusive = small, poorly fitted or top-dose-only effect, or effect the other way, or a change in a side signal; inactive = flat fitted curve, though single readings scatter; the % refers to the signal ratio. For the sample, actives were picked, then their nearest neighbours and some compounds at random.
Outcomes: Y = active, N = inactive

* COc1ccc(OC)c(N(CC(=O)NCCSC2CCCCC2)S(=O)(=O)c2ccccc2)c1 | Y
* CC(C)C(OC(=O)c1ccco1)C(=O)NC1CCCCC1 (stereo not drawn) | N
* CC(C)/C=C1\CC/C(=C\c2cccnc2)C1=O | N
* O=C(CCSc1ccccc1)Nc1ccccc1Br | N
* Cc1cc(C(=O)CN2C(=O)C(=O)N(C3CCCC3)C2=O)c(C)n1CCc1ccc(F)cc1 | Y
* O=C1CCCc2ccccc2N1Cc1ccc(Cl)cc1 | N
* COc1ccc(N(CC(=O)NCc2ccccc2OC)S(=O)(=O)c2ccccc2)cc1 | Y
* CNC(=O)C1CC(=O)N(c2ccc(F)c(Cl)c2)C1 (stereo not drawn) | N
* CC1C/C(=C/c2cccs2)C(=O)/C(=C/c2cccs2)C1 (stereo not drawn) | N
* O=C1/C(=C/c2cccnc2)CCC/C1=C\c1cccnc1 | Y
* OCCN(Cc1ccccc1)Cc1cccc(F)c1 | N
* COc1ccc(N(CC(=O)NCCSC2CCCCC2)S(=O)(=O)c2ccccc2)cc1OC | N
* CN(CC(=O)Nc1ccccc1F)S(=O)(=O)c1ccc2c(c1)n(C)c(=O)c(=O)n2C | N
* COc1ccc(NC(=O)Nc2ccc(CC(=O)O)cc2)cc1 | Y
* O=C1/C(=C/c2cccnc2)CC/C1=C\c1cccnc1 | N
* CC(C(=O)NCC1(c2ccccc2)CCCC1)N1CCOCC1 (stereo not drawn) | N
* Cc1ccc(NC(=O)CN(C)S(=O)(=O)c2ccc3c(c2)n(C)c(=O)c(=O)n3C)c(C)c1 | N
* COCCNC(=O)C(OC(=O)c1cc2oc(C)cc2n1C)C(C)C (stereo not drawn) | N
* O=[N+]([O-])c1cccc(CN(CCO)Cc2ccccc2)c1 | Y
* Cc1cc(C(=O)CN2C(=O)C(=O)N(Cc3ccccc3)C2=O)c(C)n1Cc1ccc(F)cc1 | N
* O=C(CCc1nnc2n(Cc3ccc(Cl)cc3)c(=O)c3ccccc3n12)NCCCN1CCOCC1 | N
* CCN(Cc1ccccc1)Cc1cccc([N+](=O)[O-])c1 | N
* Cc1cnc(C(=O)N2CCCC(C(=O)c3cccc(OC(C)C)c3)C2)cn1 (stereo not drawn) | N
